assayedTarget: mTDP2 9M (8M + H323L) (Mus musculus, UniProt Q9JJX7, E242G/H323L/I281T/K282R/P318T/Q278R/R316G/S244A/Y321C)
measurementDescription: biochemical
measurementType: IC50 (nM)

- compound: "N#Cc1ccc2cc3c(=O)[nH]c(=O)nc-3n(-c3cccc(-c4nnn[nH]4)c3)c2c1 [Compound 1]"
  measurementType: "IC50"
  recordedNumber: 29

###

assayedTarget: mTDP2 5M (Q278R, I281T, K282R, P318T, Y321C) (Mus musculus, UniProt Q9JJX7, I281T/K282R/P318T/Q278R/Y321C)
Sequence (Q9JJX7 1-370 Q278R/I281T/K282R/P318T/Y321C): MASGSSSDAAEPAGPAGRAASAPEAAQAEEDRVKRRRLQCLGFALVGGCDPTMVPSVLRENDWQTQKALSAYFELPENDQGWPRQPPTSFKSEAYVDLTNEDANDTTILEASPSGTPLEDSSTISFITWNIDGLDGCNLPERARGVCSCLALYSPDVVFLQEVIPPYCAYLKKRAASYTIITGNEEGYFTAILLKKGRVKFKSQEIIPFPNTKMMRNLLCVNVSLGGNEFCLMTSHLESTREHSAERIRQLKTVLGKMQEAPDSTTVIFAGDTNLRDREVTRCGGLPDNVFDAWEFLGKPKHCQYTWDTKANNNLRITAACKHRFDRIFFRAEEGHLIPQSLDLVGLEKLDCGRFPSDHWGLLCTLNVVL
measurementDescription: Recombinant TDP2 assay, mouse TDP2 5M mutant
pIC50: −log10 of the molar value.
measurementType: pIC50

- compound: "N#Cc1ccc2cc3c(=O)[nH]c(=O)nc-3n(-c3cccc(-c4nnn[nH]4)c3)c2c1 [Compound 1]"
  recordedNumber: 5.92
